Experimental System: T1, TRAIL (human, UniProt P50591 114-281)
T1 construct: also called TNF-related apoptosis inducing ligand
T1 sequence (P50591 114-281 limits assumed): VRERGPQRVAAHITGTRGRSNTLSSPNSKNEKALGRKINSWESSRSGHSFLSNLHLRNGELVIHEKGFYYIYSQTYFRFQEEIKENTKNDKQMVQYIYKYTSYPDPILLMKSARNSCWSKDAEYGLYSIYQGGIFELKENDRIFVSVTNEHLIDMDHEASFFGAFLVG
Method Description: phage ELISA

| Binder | binding result |
| --- | --- |
| I068F03 (scFv) scFv: EVQLVQSGADVKKPGASVKVSCKASHYPFTTYGVSWVRQAPGQGLEWMGWISNYNGHTRYAPKFQGRVTLTTDTLTNTAFMELKSLTSDDTAIYYCARAGNEYGHTERPADYWGKGTMVTVSSGGGGSGGGGSGGGGSAQAVLTQPSSVSGAPGQRVTISCTGSSSNIGAGYDVHWYQQLPGTTPKLLISRNNNRPPGVPDRFSGSKSGTSASLAITGLQAEDEADYYCQSYDTTLRGWVFGGGTKVTVLG | no binding |
| I018H09 (scFv) scFv: QVQLQQSGAEVKKPGASVKVSCKASGYTFTKYTMHWVRQAPGQGPEWMGWINGGSGDTKYSRKFQGRVTITKDTSASATYMELSSLGSEDTALYYCARATYDPLTGYSFDGFDIWGKGTMVTVSSGGGGSGGGGSGGGGSQSVLTQPASVSGSPGQSITISCTGTSSDVGGYNYVSWYQQHPGKAPKLMIYEGSKRPSGVSNRFSGSKSGNTASLTISGLQAEDEADYYCSSYTTRSTRVFGGGTKLTVLG | no binding |
